- Measurement Protocol: A549 NSCLC cell proliferation inhibitors – ATP luminescence, human non-small cell lung line, primary screen (AID 371);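 further: compound exposure lasted 72 h before the ATP read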
- Setup Conditions: at 10 µM, hits give high values
Hit rate of the full screen: of about 3,300 compounds, about 280 (8.5%) were called active. The sample as a whole holds a higher share of actives than the screen did.
Assign Y whenever growth inhibition does not fall below 70%; assign N whenever it does.

{"Compound": "Cn1ncc(N=Cc2c(O)ccc3ccccc23)c1C(=O)N1CCOCC1", "Discrete Label": "N"}
{"Compound": "CC(C)(C)c1ccc(C(O)CCCN2CCC(C(O)(c3ccccc3)c3ccccc3)CC2)cc1 (stereo not given)", "Discrete Label": "Y"}
{"Compound": "c1ccc(CSc2nnc(SCc3ccccn3)s2)nc1", "Discrete Label": "N"}
{"Compound": "COc1cccc(-c2nnc3sc(C4CCCCC4)nn23)c1", "Discrete Label": "Y"}
{"Compound": "c1cncc(-c2nnc3sc(C4CCCCC4)nn23)c1", "Discrete Label": "N"}
